Entry source: patent US10214510B2

# EXPERIMENT_DESCRIPTION: log P by HPLC on reversed-phase column (C 18), EEC Directive 79/831 Annex V.A8
# Format: physicochemical
# CONDITION_DESCRIPTION: HPLC, C 18, 40° C., 0.1% aqueous formic acid and acetonitrile
EXPERIMENTAL_READOUT: logP

These recorded examples may help you get a feel for the data.
> print(dat)
                                   compound  test.result
1  CC(Cc1ncc(C(F)(F)F)cc1-c1coc2ccccc12)N(C(=O)c1cn(C)nc1C(F)F)C1CC1 (stereo not shown)         4.11
2  CC(Cc1ncc(C(F)(F)F)cc1-c1ccsc1)N(C(=O)c1cn(C)nc1C(F)F)C1CC1 (stereo not shown)         3.67
3  CC(Cc1ncc(C(F)(F)F)cc1-c1coc2ccccc12)N(C(=O)c1c(C(F)F)nn(C)c1F)C1CC1 (stereo not shown)         4.46
4  CC(Cc1ncc(C(F)(F)F)cc1-c1ccnc2cc(Cl)ccc12)N(C(=O)c1c(C(F)F)nn(C)c1F)C1CC1 (stereo not shown)         4.20
5  CC(Cc1nc2ccc(C(F)(F)F)cn2c1-c1csc2ccccc12)N(C(=O)c1c(C(F)F)nn(C)c1F)C1CC1 (stereo not shown)         3.57

A = CC(Cc1ncc(C(F)(F)F)cc1-c1cnc2ccccc2c1)N(C(=S)c1c(C(F)F)nn(C)c1F)C1CC1 (stereo not shown)
B = COc1ccnc(-c2c(CC(C)N(C(=O)c3c(C(F)F)nn(C)c3F)C3CC3)nc3ccc(C(F)(F)F)cn23)n1 (stereo not shown)
## Task Could you tell me which of these two has the smaller logP figure? First: A Second: B Write the label of whichever entry you select.
## Result B
(B: 2.44, A: 3.99)

1 = CC(Cc1ncc(C(F)(F)F)cc1-c1cnc2ccccc2c1)N(C(=O)c1c(C(F)F)nn(C)c1F)C1CC1 (stereo not shown)
2 = CC(Cc1ncc(C(F)(F)F)cc1CN1CCCCC1)N(C(=O)c1c(C(F)F)nn(C)c1F)C1CC1 (stereo not shown)
3 = CC(Cc1ncc(C(F)(F)F)cc1-c1csc2ccccc12)N(C(=S)c1c(C(F)F)nn(C)c1F)C1CC1 (stereo not shown)
## Task Arrange these 3 compounds in increasing order of logP. Give the order by naming the labels one after another as requested.
## Result 2, 1, 3
(2: 1.82, 1: 3.53, 3: 5.32)

---

# EXPERIMENT_DESCRIPTION: log P by HPLC on reversed-phase column (C 18), EEC Directive 79/831 Annex V.A8
# Type: physicochemical
# CONDITION_DESCRIPTION: reversed-phase HPLC column (C 18); preparation example 1
EXPERIMENTAL_READOUT: chromatographic logP
Could you keep your reply to the number by itself?

## Task For the compound CC(Cc1ncc(C(F)(F)F)cc1-c1ccsc1)N(C(=O)c1c(C(F)F)nn(C)c1F)C1CC1 (stereo not shown) , what chromatographic logP is on record?
## Result 4.03

---

# EXPERIMENT_DESCRIPTION: log P by HPLC on reversed-phase column (C 18), EEC Directive 79/831 Annex V.A8
# Assay type: physicochemical
# CONDITION_DESCRIPTION: HPLC, C 18, 40° C., 0.1% aqueous formic acid and acetonitrile
EXPERIMENTAL_READOUT: logP

> print(dat)
                                   molecule  experimental.readout  test.result
1  CC(Cc1nc2ccc(C(F)(F)F)cn2c1-c1ccoc1)N(C(=O)c1c(C(F)F)nn(C)c1F)C1CC1 (centres unmarked)                  logP         2.63

a = CC(Cc1ncc(C(F)(F)F)cc1-c1ccnc2cc(Cl)ccc12)N(C(=O)c1cn(C)nc1C(F)F)C1CC1 (centres unmarked)
b = CC(Cc1nc2ccc(C(F)(F)F)cn2c1-c1cccc2cccnc12)N(C(=O)c1c(C(F)F)nn(C)c1F)C1CC1 (centres unmarked)
## Task Looking at recorded values for logP, does a or b come in lower? Pick one; state its label.
## Result b
(b: 2.44, a: 3.78)

---

# EXPERIMENT_DESCRIPTION: log P by HPLC on reversed-phase column (C 18), EEC Directive 79/831 Annex V.A8
# Type: physicochemical
# CONDITION_DESCRIPTION: HPLC, C 18, 40° C., 0.1% aqueous formic acid and acetonitrile
# Experimental: In table 1, the log P values were determined in accordance with EEC Directive 79/831 Annex V.A8 by HPLC (High Performance Liquid Chromatography) on a reversed-phase column (C 18), using the method described below: Temperature: 40° C.; Mobile phases: 0.1% aqueous formic acid and acetonitrile; linear gradient from 10% acetonitrile to 90% acetonitrile. […]
EXPERIMENTAL_READOUT: logP

> print(dat)
                                   molecule  experimental.readout  test.result
1  Cc1nc(C(F)F)c(C(=O)N(C(C)Cc2nc3ccc(C(F)(F)F)cn3c2-c2ccsc2)C2CC2)s1 (stereo not drawn) [I.25]                  logP         3.39
2  Cc1cscc1-c1cc(C(F)(F)F)cnc1CC(C)N(C(=O)c1cn(C)nc1C(F)F)C1CC1 (stereo not drawn) [I.10]                  logP         3.99
3  Cc1cscc1-c1cc(C(F)(F)F)cnc1CC(C)N(C(=O)c1c(C(F)F)nn(C)c1F)C1CC1 (stereo not drawn) [I.07]                  logP         4.37
4  CC(Cc1nc2ccc(C(F)(F)F)cn2c1-c1ccsc1)N(C(=O)c1ccsc1Cl)C1CC1 (stereo not drawn) [I.23]                  logP         4.44
5  CC(Cc1nc2ccc(C(F)(F)F)cn2c1-c1ccsc1)N(C(=O)c1c(C(F)F)nn(C)c1F)C1CC1 (stereo not drawn) [I.15]                  logP          2.8
6  Cc1cc(C(=O)N(C(C)Cc2nc3ccc(C(F)(F)F)cn3c2-c2ccsc2)C2CC2)c(C)o1 (stereo not drawn) [I.24]                  logP         3.35

---

# EXPERIMENT_DESCRIPTION: log P by HPLC on reversed-phase column (C 18), EEC Directive 79/831 Annex V.A8
# Type: physicochemical
# CONDITION_DESCRIPTION: HPLC, C 18, 40° C., 0.1% aqueous formic acid and acetonitrile
EXPERIMENTAL_READOUT: logP

Here is how some compounds turned out for logP.
> print(dat)
                                   compound  test.result
1  CC(Cc1nc2ccc(C(F)(F)F)cn2c1-c1ccsc1)N(C(=O)c1nn(C)nc1C(F)F)C1CC1 (centres unmarked)         3.08
2  CC(Cc1ncc(C(F)(F)F)cc1-c1csc2ccccc12)N(C(=O)c1c(C(F)F)nn(C)c1F)C1CC1 (centres unmarked)         4.72
3  CC(Cc1ncc(C(F)(F)F)cc1-c1ccoc1)N(C(=O)c1c(C(F)F)nn(C)c1F)C1CC1 (centres unmarked)         3.76

1 = CC(Cc1ncc(C(F)(F)F)cc1-c1ccco1)N(C(=O)c1cn(C)nc1C(F)F)C1CC1 (centres unmarked)
2 = CC(Cc1ncc(C(F)(F)F)cc1CN1CCCCC1)N(C(=O)c1cn(C)nc1C(F)F)C1CC1 (centres unmarked)
## Task Which gives the smaller logP number: 1 or 2 ? Respond using the label that marks the chosen record.
## Result 2
